# Protocol notes: Plasma pharmacokinetics of BI 187004 after single oral doses (LC–MS/MS)
# Particulars: male, human, plasma, po, 40 mg, BI 187004 plasma concentrations, 40 mg single oral, planned time 72 h, Max
Assay readout: concentration at 72 h (nM)
Kindly provide the numeric value in nM only, without the unit symbol.

What value of concentration at 72 h has been reported for the following molecule? N#Cc1ccc2c(c1)[C@H]1CCCN(C(=O)c3ccc4[nH]cnc4c3)[C@H]1C2 [BI 187004]
83.4

---

# Protocol notes: Plasma pharmacokinetics of BI 187004 after single oral doses (LC–MS/MS)
# Particulars: male, human, plasma, po, 5 mg, Plasma concentration Median, 5 mg single oral; 48 h
Assay readout: concentration at 48 h (nM)
The figure you give is taken to be in nM; do not add the unit.

Look at this molecule and give its reported concentration at 48 h. N#Cc1ccc2c(c1)[C@H]1CCCN(C(=O)c3ccc4[nH]cnc4c3)[C@H]1C2 [BI 187004]
11.2

---

# Protocol notes: Plasma pharmacokinetics of BI 187004 after single oral doses (LC–MS/MS)
# Particulars: male, human, plasma, po, 40 mg, BI 187004 plasma concentrations, 40 mg single oral, planned time 10 h, Median
Assay readout: concentration at 10 h (nM)
Express it in nM; write the number only.

Look at this molecule and give its reported concentration at 10 h. N#Cc1ccc2c(c1)[C@H]1CCCN(C(=O)c3ccc4[nH]cnc4c3)[C@H]1C2 [BI 187004]
815

---

# Protocol notes: Plasma pharmacokinetics of BI 187004 after single oral doses (LC–MS/MS)
# Particulars: male, human, plasma, po, 240 mg, BI 187004 plasma concentrations, Max, 240 mg single oral, planned time 0.5 h
Assay readout: concentration at 0.5 h (µM)
Form entry: value (µM) — number only.

Returns the measured concentration at 0.5 h for the input compound. Input: N#Cc1ccc2c(c1)[C@H]1CCCN(C(=O)c3ccc4[nH]cnc4c3)[C@H]1C2
8.44

---

# Protocol notes: Plasma pharmacokinetics of BI 187004 after single oral doses (LC–MS/MS)
# Particulars: male, human, plasma, po, 20 mg, BI 187004 plasma concentrations, 20 mg single oral, planned time 10 h, Min
Assay readout: concentration at 10 h
Give the value; after it, write the unit.

# concentration at 10 h lookup, item N#Cc1ccc2c(c1)[C@H]1CCCN(C(=O)c3ccc4[nH]cnc4c3)[C@H]1C2
253 nM

---

# Protocol notes: Plasma pharmacokinetics of BI 187004 after single oral doses (LC–MS/MS)
# Particulars: male, human, plasma, po, 240 mg, BI 187004 plasma concentrations, Mean, 240 mg single oral, planned time 96 h
Assay readout: concentration at 96 h (nM)
Numbers only here, please. The scale is nM.

I have this compound here, N#Cc1ccc2c(c1)[C@H]1CCCN(C(=O)c3ccc4[nH]cnc4c3)[C@H]1C2 , and I need its recorded concentration at 96 h.
63.9

---

# Protocol notes: Plasma pharmacokinetics of BI 187004 after single oral doses (LC–MS/MS)
# Particulars: male, human, plasma, po, 20 mg, BI 187004 plasma concentrations, 20 mg single oral, planned time 2.5 h, Mean
Assay readout: concentration at 2.5 h (nM)
Quick reminder: number only, in nM, skip the unit.

Query (compound): N#Cc1ccc2c(c1)[C@H]1CCCN(C(=O)c3ccc4[nH]cnc4c3)[C@H]1C2 ; field requested: concentration at 2.5 h
860

---

# Protocol notes: Plasma pharmacokinetics of BI 187004 after single oral doses (LC–MS/MS)
# Particulars: male, human, plasma, po, 360 mg, BI 187004 plasma concentrations, gMean, 360 mg single oral, planned time 36 h
Assay readout: concentration at 36 h
I'd appreciate it if you included the unit after the number.

Report concentration at 36 h for N#Cc1ccc2c(c1)[C@H]1CCCN(C(=O)c3ccc4[nH]cnc4c3)[C@H]1C2 please.
1410 nM

---

# Protocol notes: Plasma pharmacokinetics of BI 187004 after single oral doses (LC–MS/MS)
# Particulars: male, human, plasma, po, 80 mg, BI 187004 plasma concentrations, 80 mg single oral, planned time 96 h, Max
Assay readout: concentration at 96 h
The reply must contain the numeric value and, after it, the unit.

Entry N#Cc1ccc2c(c1)[C@H]1CCCN(C(=O)c3ccc4[nH]cnc4c3)[C@H]1C2 [BI 187004] has what concentration at 96 h?
110 nM

---

# Protocol notes: Plasma pharmacokinetics of BI 187004 after single oral doses (LC–MS/MS)
# Particulars: male, human, plasma, po, 240 mg, BI 187004 plasma concentrations, Min, 240 mg single oral, planned time 0.5 h
Assay readout: concentration at 0.5 h (nM)
Write the value in nM as a bare number.

What concentration at 0.5 h value was documented for this compound, N#Cc1ccc2c(c1)[C@H]1CCCN(C(=O)c3ccc4[nH]cnc4c3)[C@H]1C2 ?
130

---

# Protocol notes: Plasma pharmacokinetics of BI 187004 after single oral doses (LC–MS/MS)
# Particulars: male, human, plasma, po, 10 mg, Plasma concentration Mean, 10 mg single oral; 8 h
Assay readout: concentration at 8 h (nM)
Answer in nM, number only, no unit symbol.

For the molecule shown here, N#Cc1ccc2c(c1)[C@H]1CCCN(C(=O)c3ccc4[nH]cnc4c3)[C@H]1C2 , give the reported concentration at 8 h.
213

---

# Protocol notes: Plasma pharmacokinetics of BI 187004 after single oral doses (LC–MS/MS)
# Particulars: male, human, plasma, po, 160 mg, BI 187004 plasma concentrations, 160 mg single oral, planned time 4 h, Mean
Assay readout: concentration at 4 h (µM)
Give the value, in units of µM, as a plain number.

Which concentration at 4 h value is on record for N#Cc1ccc2c(c1)[C@H]1CCCN(C(=O)c3ccc4[nH]cnc4c3)[C@H]1C2 [BI 187004] ?
5.8

---

# Protocol notes: Plasma pharmacokinetics of BI 187004 after single oral doses (LC–MS/MS)
# Particulars: male, human, plasma, po, 20 mg, BI 187004 plasma concentrations, 20 mg single oral, planned time 1.5 h, Max
Assay readout: concentration at 1.5 h (nM)
Express your answer in nM, writing the number without its unit.

Need concentration at 1.5 h, item N#Cc1ccc2c(c1)[C@H]1CCCN(C(=O)c3ccc4[nH]cnc4c3)[C@H]1C2 [BI 187004]
1210

---

# Protocol notes: Plasma pharmacokinetics of BI 187004 after single oral doses (LC–MS/MS)
# Particulars: male, human, plasma, po, 80 mg, BI 187004 plasma concentrations, 80 mg single oral, planned time 5 h, Min
Assay readout: concentration at 5 h

I would be grateful if you could share the reported concentration at 5 h for N#Cc1ccc2c(c1)[C@H]1CCCN(C(=O)c3ccc4[nH]cnc4c3)[C@H]1C2 .
905 nM

---

# Protocol notes: Plasma pharmacokinetics of BI 187004 after single oral doses (LC–MS/MS)
# Particulars: male, human, plasma, po, 360 mg, BI 187004 plasma concentrations, Max, 360 mg single oral, planned time 24 h
Assay readout: concentration at 24 h (µM)
Respond numerically; units are µM and should not be typed.

What measured concentration at 24 h goes with N#Cc1ccc2c(c1)[C@H]1CCCN(C(=O)c3ccc4[nH]cnc4c3)[C@H]1C2 ?
4.74

---

# Protocol notes: Plasma pharmacokinetics of BI 187004 after single oral doses (LC–MS/MS)
# Particulars: male, human, plasma, po, 360 mg, BI 187004 plasma concentrations, Min, 360 mg single oral, planned time 1.5 h
Assay readout: concentration at 1.5 h (µM)
Respond with the bare value in µM.

What measured concentration at 1.5 h goes with N#Cc1ccc2c(c1)[C@H]1CCCN(C(=O)c3ccc4[nH]cnc4c3)[C@H]1C2 ?
6.45

---

# Protocol notes: Plasma pharmacokinetics of BI 187004 after single oral doses (LC–MS/MS)
# Particulars: male, human, plasma, po, 5 mg, Plasma concentration Mean, 5 mg single oral; 96 h
Assay readout: concentration at 96 h (nM)
State the answer as a number, implicitly in nM.

Consider the molecule N#Cc1ccc2c(c1)[C@H]1CCCN(C(=O)c3ccc4[nH]cnc4c3)[C@H]1C2 and give its measured concentration at 96 h.
4.78

---

# Protocol notes: Plasma pharmacokinetics of BI 187004 after single oral doses (LC–MS/MS)
# Particulars: male, human, plasma, po, 80 mg, BI 187004 plasma concentrations, 80 mg single oral, planned time 1 h, Max
Assay readout: concentration at 1 h (µM)
Report the figure in µM without appending any unit label.

# get_value(readout='concentration at 1 h', item= N#Cc1ccc2c(c1)[C@H]1CCCN(C(=O)c3ccc4[nH]cnc4c3)[C@H]1C2 )
4.77

---

# Protocol notes: Plasma pharmacokinetics of BI 187004 after single oral doses (LC–MS/MS)
# Particulars: male, human, plasma, po, 20 mg, BI 187004 plasma concentrations, 20 mg single oral, planned time 1.5 h, Min
Assay readout: concentration at 1.5 h (nM)
Just the number please, in nM, no unit attached.

concentration at 1.5 h lookup needed for N#Cc1ccc2c(c1)[C@H]1CCCN(C(=O)c3ccc4[nH]cnc4c3)[C@H]1C2 , thanks.
824
